Experiment: Firefly Luciferase Counterscreen for Inhibitors of ATXN expression
Conditions: luminescence; series mostly up to 57.5 µM
In all, about 1,400 compounds went through this assay and about 30 (2%) were called active. Another 15% or so got no clear call; they are omitted. Calls come from the whole dose curve; as a rule, active = well fitted inhibition curve with a large enough effect; inconclusive = small, poorly fitted or top-dose-only effect; inactive = flat fitted curve, though single readings scatter. What follows is part of a selection rich in actives, with near analogues and random picks from the rest.
Outcome codes: active, inactive

- molecule: "Cc1nc2c(OCc3ccc(C#N)cc3)cccn2c1N(C)Cc1cccs1"
  label: "inactive"
- molecule: "CCN1C(=O)/C(=C/c2nc3ccccc3c(=O)n2-c2ccccc2)c2ccccc21"
  label: "inactive"
- molecule: "CC(=O)Nc1ccc(N(CC(O)Cn2c3ccccc3c3ccccc32)S(=O)(=O)c2ccc(C)cc2)cc1 (stereo unspecified)"
  label: "inactive"
- molecule: "COC(=O)c1c(NC(=O)c2ccc([N+](=O)[O-])o2)sc2c1CCN(C(C)C)C2"
  label: "inactive"
- molecule: "Cc1ccc(Cl)cc1N1CCN(C(=O)CCS(=O)(=O)c2ccc3c(c2)NC(=O)CO3)CC1"
  label: "inactive"
- molecule: "COc1ccc(NC(=O)c2cc(-c3cc(Cl)ccc3OC)n[nH]2)cc1OC"
  label: "inactive"
- molecule: "NC(Cc1ccc(C(F)(F)F)cc1)c1csc(Nc2ccc(C(=O)c3ccccc3)cc2)n1 (stereo unspecified)"
  label: "inactive"
- molecule: "CCc1nn2cc(C(=O)c3cc(Cl)ccc3O)cnc2c1-c1ccc(F)cc1"
  label: "inactive"
- molecule: "Cc1ccc(OCCCC(=O)NNC(=O)c2ccccn2)cc1"
  label: "inactive"
- molecule: "Cc1cccc(OCC(=O)Nc2ccc3c(c2)nc(CCN2CCN(c4ccccn4)CC2)n3C)c1"
  label: "inactive"
- molecule: "COc1cc2nc(N(C)C)nc(N)c2cc1OC"
  label: "inactive"
- molecule: "O=C(CN1C(=O)c2ccccc2S1(=O)=O)c1ccc(Cl)cc1Cl"
  label: "active"
- molecule: "CS(=O)(=O)c1ccc(Nc2nc(C(N)Cc3ccc(Cl)cc3)cs2)cc1 (stereo unspecified)"
  label: "inactive"
- molecule: "c1ccc(CNc2nc(-c3ccccn3)nc3ccccc23)cc1"
  label: "inactive"
- molecule: "CC(=O)Nc1cccc(-c2ccnc3c2CC(C)(C(=O)Nc2cccc(Oc4ccccc4)c2)O3)c1 (stereo unspecified)"
  label: "inactive"
- molecule: "Cc1ccc(/C=C2/CNC/C(=C/c3ccc(C)cc3)C2=O)cc1"
  label: "inactive"
- molecule: "O=C(CCCN1C(=O)/C(=C/c2ccccc2Cl)SC1=S)NNC(=O)c1ccc(Cl)cc1Cl"
  label: "inactive"
- molecule: "CC(=O)Nc1cccc(-c2ccnc3c2CC(C)(C(=O)Nc2ccc(Cl)c(C(F)(F)F)c2)O3)c1 (stereo unspecified)"
  label: "inactive"
- molecule: "O=C(CSc1n[nH]c(-c2ccccn2)n1)Nc1ccc(F)cc1"
  label: "inactive"
- molecule: "CN(C)CCCN(C(=O)c1ccco1)c1nc2ccc(Br)cc2s1"
  label: "inactive"
- molecule: "CCC(=O)NNC(=S)NC(=O)c1ccc(C)cc1"
  label: "inactive"

###

Assay: Firefly Luciferase Counterscreen for Inhibitors of ATXN expression
Settings: luminescence; series mostly up to 57.5 µM
Among all 1,400 compounds or so, about 30 (2%) were called active. Not shown: some 15% with an inconclusive outcome. Calls come from the whole dose curve; as a rule, active = well fitted inhibition curve with a large enough effect; inconclusive = small, poorly fitted or top-dose-only effect; inactive = flat fitted curve, though single readings scatter. Only a selection was taken, and actives are over-represented in it overall.
Classes used: 1 for active, 0 for inactive

- compound: "O=C(Nc1ccc(OC(F)(F)F)cc1)N1CCN(c2ccnc3cc(Cl)ccc23)CC1"
  label: 0
- compound: "COc1ccc(Cl)cc1C(Nc1cccnc1)c1ccc2cccnc2c1O (stereo not given)"
  label: 0
- compound: "O=C(Nc1ccccc1C(=O)Nc1nnc(C(F)(F)F)s1)c1ccccc1Cl"
  label: 1
- compound: "CC(=O)Nc1ccc(CNc2nc(NC(C)C)nc3cc(-c4ccccc4)sc23)cc1"
  label: 1
- compound: "O=C(N/N=C(\\c1ccccc1)c1ccccn1)c1ccccc1Cl"
  label: 0
